System: NCI-H522 lung
Assay: NCI-60 one-dose screen, 48 h (100 = growth as untreated, 0 = no growth, -100 = all killed)
Details: 10 µM unless noted
Compounds without any hit were thinned out: in the full panel of roughly 83,000, 20% have a hit.
Can you tell me growth for the items I'm about to list?
Just the number please, in %, no unit attached.

Look up and report measured growth for this entry: Clc1ccc(-c2nc(-c3ccco3)cn3ccnc23)cc1 61.5

Answer with the recorded growth of Cc1cc(C(=O)CSc2nc3ccccc3c(=O)[nH]2)c(C)n1C only. 98.9

Entry CCCCCCCCCCCCCCCCCCOc1cccc(CCOP(=O)(O)OCC[N+](C)(C)C)c1 needs its growth filled in; supply it. 72

Return growth for the following molecule: CC[C@H](C)[C@H]1NC(=O)[C@@H](N[C@](C)(O)[C@@H](N)CC(C)C)[C@@H](C)OC(=O)[C@H](Cc2ccc(OC)cc2)N(C)C(=O)[C@@H]2CCCN2C(=O)[C@H](CC(C)C)NC(=O)[C@@H](C)C(=O)[C@H](C(C)C)OC(=O)C[C@@H]1O -37.7

Kindly indicate its recorded growth. Item: Cc1ccc(OCCn2c(C)nn(-c3ccc(Cl)cc3)c2=O)cc1 106

Indicate its recorded growth; the molecule in question is O=S(=O)(NCCCNc1nccc(-c2c(-c3ccc(O)cc3)nc3sccn23)n1)c1ccc(F)cc1 -1.49

Tell me growth reported for COc1cc(C(=O)N2CCN(C(=O)c3ccco3)CC2)c(N)cc1OCc1ccccc1 84.4

Tell me growth reported for CCCCCCCCCN1C(=O)/C(=c2\sc3n(c2=O)C2C(NN=3)N(CC)C(=O)N2CC)c2ccccc21 (centres undefined) 26.8

Give growth for COc1ccc2c(c1)C=CC(C#N)N2C(=O)c1ccccc1 (centres undefined) 1.91

Supply reported growth belonging to this molecule: CCCOC(=O)C1(O)CCCC1 75

Tell me measured growth for COc1ccc(S(=O)(=O)N2CCN(c3cc4c(cc3F)c(=O)c(C(=O)O)cn4C3CC3)CC2)c(OC)c1 please. 91.4

// Input: Cc1nc2scc(-c3ccccc3)n2c(=O)c1CCO . Output its growth only. 99.1

Give reported growth value for COc1cc(NC(=O)c2cc3ccccc3nc2Nc2ccc(F)cc2)cc(OC)c1OC 49.8

Indicate the recorded growth value for this molecule: Cc1ccc(C2=NN(c3ccc(S(N)(=O)=O)cc3)C(c3cn(-c4ccccc4)nc3-c3ccccc3)C2)cc1 (centres undefined) 75.2

Let me know recorded growth for COc1ccc(-c2nc(-c3nc4ccc(F)cc4[nH]3)cc3c2[nH]c2ccccc23)cc1 , thanks. 44.4

Quote growth reported for COc1cccc(-n2cc(-c3nc(Cl)c4ccccc4n3)nn2)c1 please. 83.2

Please supply the value of reported growth for the item Cc1ccccc1C(=O)c1ccccc1C(=O)O 102

Give the measured growth for O=c1[nH]c(CN2CCN(c3ccccc3F)CC2)nc2sc3c(c12)CCC3 98.7

Look up growth of COc1ccc(C2NC3=C(CCCC3)C(C#N)(C#N)C2(C#N)C#N)cc1 (centres undefined) and report it. 23.8

Give reported growth value for NC(=O)c1ccc2c(c1)OCO2 91.9

Return the recorded growth value; entry: Cc1ccc2c(c1)C(C)Cc1c(N(C)C)ncnc1N2C (centres undefined) 4.76

Look up growth of COc1ccc(/C=C/C(=O)c2ccc(B(O)O)cc2)cc1O and report it. 85.6

Report growth, nothing else, for this molecule: C/C(=C\c1csc(C)n1)[C@@H]1C[C@@H]2O[C@]2(C)CCC[C@H](C)[C@H](O)[C@@H](C)C(=O)C(C)(C)[C@@H](O)CC(=O)N1 -81.4

# return recorded growth for input COc1ccc(/C=C/c2nc(N3CCOCC3)c3cc(F)c(F)cc3n2)cc1OC 26

Output measured growth for this item: COc1ccc(/C(=N/O)c2cc(OC)c(OC)c(OC)c2)c(OC)c1N 0.281

# return recorded growth for input O=C(N/N=C/c1c(Cl)cccc1Cl)c1ccccc1Nc1ccnc(C(F)(F)F)c1 52.6

Give the reported growth for this molecule. CC(C)[C@H](CO)Nc1nc(Nc2ccc(C(=O)NCCNS(=O)(=O)c3cccc4c(N(C)C)cccc34)c(Cl)c2)c2ncn(C(C)C)c2n1 -31.5

Given Nc1c(C(=O)Nc2c(Cl)cccc2Cl)sc2nc3c(cc12)CCCCC3 , respond with its growth. 40.1

Supply recorded growth for COc1cc(C2CC(c3c(C)[n+]([O-])c4ccccc4[n+]3[O-])=NN2)cc(OC)c1OC (centres undefined) here. 104

Answer with the recorded growth for the molecule listed here: COC(=O)c1ccc(C)cc1 97.5

Return the recorded growth value; entry: C#CCN1C(=O)/C(=c2\sc3n(c2=O)NC2C(N=3)N(CC)C(=O)N2CC)c2ccccc21 (centres undefined) 52.4

Tell me its growth given O=S(=O)(NCCCNc1cc(-c2cn(-c3ccccc3)nc2-c2cccc(O)c2)ccn1)c1ccc(Br)cc1 as the entry. 25.6

Indicate its recorded growth; the molecule in question is Cc1ccc(C(=O)c2sc3nc4c(cc3c2N)CCCC4)c(C)c1 -0.883

Output measured growth for this item: CCCn1c(=S)sc2c(Cl)nc(C)nc21 33

---

Test system: UACC-257 melanoma
Assay: NCI-60 one-dose screen, 48 h (100 = growth as untreated, 0 = no growth, -100 = all killed)
Conditions: 10 µM
This is part of a sample that, as a whole, favours compounds with a hit. Of some 83,000 tested, about 20% had one in any assay.
Field: label. Allowed values: Criterion met (growth < 40%) or Criterion not met (growth >= 40%).

Bench note: check whether COc1ccc(C(=O)c2cc(OC)c(OC)c(OC)c2)cc1/C=C/C(=O)c1ccc(O)cc1 shows growth below 40% Criterion met

hey, is growth for C=CCn1c(C)nc2ccc(Nc3nc(Nc4ccc(F)cc4)nc4ccccc34)cc21 lower than 40% or not? Criterion not met

For this compound, is growth lower than 40%? COc1cc(OC)c(C(=O)/C=C/c2cccc(C#N)c2)c(OC)c1 Criterion met

is_below(growth, 40%) for COc1ccc(NC(=O)CSc2nc3ccccc3c(=O)n2-c2ccccc2C(F)(F)F)c(OC)c1OC ? Criterion not met

---

Tested on: NCI-H322M lung
Test: NCI-60 one-dose screen, 48 h (100 = growth as untreated, 0 = no growth, -100 = all killed)
Conditions: 10 µM unless noted
About 83,000 compounds went through this panel and 20% of them were active in at least one assay; those are over-represented in the sample as a whole. Activity calls are given as the source filed them. The calls were made as follows: active = growth percent below 10; inactive = the rest.
Reported metric: growth

Specify measured growth for Cc1cc(Nc2nc(-c3ccc(F)cc3)nc3ccccc23)n[nH]1 . 65.5% (inactive)

Please report the measured growth for CCC(c1ccc(OC)cc1)C(CC)c1ccc(O)c(CN2CCCC2)c1 (stereo not given) 14.4% (inactive)

Specify growth for C/C(=N\NC(=O)CC#N)c1cc2cc(Cl)ccc2o1 and stop. 97.2% (inactive)

Name the recorded growth of the compound listed here: CC(=O)Nc1ccc(S(=O)(=O)N2C(=O)CCC2C(=O)Nc2ccc(Br)cc2)cc1 (stereo not given) 31.8% (inactive)

Entry CCN1C(=O)N(CC)C2C1NN=c1s/c(=C\c3ccccn3)c(=O)n12 (stereo not given) needs its growth filled in; supply it. 45.8% (inactive)

Annotate the compound COc1ccc(-n2cnc3c(sc4ncc(Cl)cc43)c2=O)cc1 with its measured growth. 45.7% (inactive)

Report measured growth; entry is COc1ccc(C2CC(c3cccs3)=NN2c2ccc(S(=O)(=O)NC(=O)NCc3cccc(OC)c3)cc2)cc1 (stereo not given) 102% (inactive)

Output measured growth for this item: O=C(COc1ccccc1)N1N=C(c2ccc(Cl)cc2)CC1c1c[nH]c2ccccc12 (stereo not given) 86.4% (inactive)

Please list growth recorded for the compound C#CCN1C(=O)/C(=c2\sc3n(c2=O)C2C(NN=3)N(CC)C(=O)N2CC)c2ccccc21 (stereo not given) 44.3% (inactive)

Let me know recorded growth for Cc1ccc2nc(SCn3nnc4ccccc4c3=O)[nH]c2c1 , thanks. 135% (inactive)

Give growth for O=C(CN1CCN(c2cc3c(cc2F)c(=O)c(C(=O)O)cn3C2CC2)CC1)Nc1ccc(C(=O)/C=C/c2ccc(Cl)cc2)cc1 111% (inactive)

Answer with the recorded growth for the compound listed here: Cc1oc2nc[nH]c(=O)c2c1C(=O)/C=C/c1ccc(Cl)cc1 45.2% (inactive)

Answer with the recorded growth for the compound listed here: Cn1c(C(N)=O)cc2c1-c1nc(NC3CCCCC3)ncc1CCC2 110% (inactive)

Please indicate growth recorded for Cc1ccc2nc(-c3c(N)n[nH]c3CCCO)[nH]c(=O)c2c1 107% (inactive)

Determine its reported growth: CCOC(=O)CC/C(C)=N\Nc1ccc([N+](=O)[O-])cc1 77.3% (inactive)

---

Tested on: MOLT-4 leukemia
Assay: NCI-60 one-dose screen, 48 h (100 = growth as untreated, 0 = no growth, -100 = all killed)
Settings: 10 µM unless noted
About 83,000 compounds went through this panel and 20% of them were active in at least one assay; those are over-represented in the sample as a whole.
Kindly supply the reported growth values for the records listed here.
Your answer is read as %, so omit the unit and give the number.

Give me measured growth, please, for this compound: Cc1cccc(NC(=O)c2sc3nc4c(cc3c2N)CCCC4)c1 33.6

Supply reported growth belonging to this compound: COC(=O)CCCCCCN=Cc1c(O)c(O)c(C(C)C)c2cc(C)c(-c3c(C)cc4c(C(C)C)c(O)c(O)c(C=NCCCCCCC(=O)OC)c4c3O)c(O)c12 15.8

Output growth of O=S(=O)(NCCCNc1cc(-c2cn(-c3ccccc3)nc2-c2cccc(O)c2)ccn1)c1cccc2ccccc12 13.6

Quick one: give measured growth for Clc1cccc(Cl)c1Cn1c(-c2cncs2)nc2ccccc21 62.9

Give me measured growth, please, for this compound: CC(C)(C)c1cn2cccc(C(=O)N3CCN(CC(=O)Nc4ccc(Cl)cc4C(=O)c4ccccc4Cl)CC3)c2n1 16.4

Specify measured growth for CC(=O)Nc1nc(C(=O)N2N=C(C)/C(=C/c3cccs3)C2=O)cs1 . 79.1

Identify measured growth associated with COc1ccc(C(=O)/C=C/c2cccc([N+](=O)[O-])c2)c(OC)c1 7.24

State its growth for this compound: CC(=O)Nc1ccc(S(=O)(=O)N2C(=O)CCC2C(=O)Nc2ccccc2)cc1 (centres undefined) 28.8

Report measured growth; entry is COc1cc(Cn2c(-c3nonc3N)nc3ccccc32)ccc1C 21.2
